assay: Rotarod test (motor coordination, ataxia); format: in vivo; conditions: mouse, rotarod versus mes, ip; mice, i.p.; Table 8; read-out: TI Rot. (ED50 rotarod failure / ED50 MES)
# selectivity ratio listing for each entry below
Provide a numeric answer; units are not to be included.

Worked cases, answers included:
Compound	selectivity ratio
CCC[C@]1(C)C[C@@H](C)C[C@@](C)(N)C1 (relative stereo) [Mrz 2/619]	1
CCC1(C)CC(C)(C)CC(C)(N)C1 (stereo not drawn) [Mrz 2/615]	3.2
CCC1(CC)CC(C)(C)CC(C)(N)C1 (stereo not drawn) [Mrz 2/623]	1.8
CC1CC(C)CC(C)(N)C1 (stereo not drawn) [Mrz 2/616, 1-amino-1,3,5-trimethylcyclohexane]	1.4

Measured selectivity ratio, CC[C@@H]1CC(C)(C)C[C@@](C)(N)C1 (relative stereo) [Mrz 2/633] : 3

Measured selectivity ratio, CCNC1(C)CC(C)(C)CC(C)(C)C1 [Mrz 2/639] : 4.4

Measured selectivity ratio, CC[C@@]1(C)C[C@H](C)C[C@@](C)(N)C1 (relative stereo) [Mrz 2/622] : 1.7

Measured selectivity ratio, CC1(C)CC(C)(C)CC(C)(CCN)C1 [Mrz 2/662] : 1.2

Measured selectivity ratio, CCC1(C)CCCC(C)(N)C1 (stereo not drawn) [Mrz 2/620] : 1.1

Measured selectivity ratio, CNC1(C)CC(C)(C)CC(C)(C)C1.Cl [Mrz 2/640, hydrochloride] : 3.3

###

settings: i.p.; Table 8
Measured metric: Min Lethality

Measured Min Lethality, CC1(N)CCCCC1 : > 50 mg/kg

Measured Min Lethality, CC1(C)CC(C)(C)CC(C)(N2CCCC2)C1.Cl : > 50 mg/kg

###

test: Rotarod test (motor coordination, ataxia); assay type: in vivo; conditions: mouse, rotarod versus mes, ip; mice, i.p.; Table 8; read-out: TI Rot. (ED50 rotarod failure / ED50 MES)
# selectivity ratio listing for each entry below
Provide a numeric answer; units are not to be included.

Worked cases, answers included:
Compound	selectivity ratio
CCC1(N)CC(C)(C)CC(C)(C)C1 [Mrz 2/600]	0.9
CCC[C@@H]1CCC[C@@](C)(N)C1 (relative stereo) [Mrz 2/627]	1
CCC[C@@H]1CC(C)(C)C[C@@](C)(N)C1 (relative stereo) [Mrz 2/635]	1.4

Measured selectivity ratio, CC1(C)CC(N)CC(C)(C)C1 [Mrz 2/557] : 1.4

Measured selectivity ratio, CC[C@H]1CC(C)(C)C[C@@](C)(N)C1 (relative stereo) [Mrz 2/632] : 3.4

###

# Min Lethality listing for each entry below
conditions: i.p.; Table 8

Molecule	Measured metric	Result
CCC1(CC)CC(C)(C)CC(C)(N)C1 (stereo not drawn) [Mrz 2/623]	Min Lethality	> 30 mg/kg

Measured Min Lethality, CC1CC(C)CC(C)(N)C1 (stereo not drawn) [Mrz 2/616, 1-amino-1,3,5-trimethylcyclohexane] : > 50 mg/kg

###

settings: i.p.; Table 8
Measured metric: Min Lethality

Worked cases, answers included:
Compound	Result
CC1(C)CCCC(C)(N)C1 (stereo not shown)	> 60 mg/kg
CCC[C@H]1CC(C)(C)C[C@@](C)(N)C1 (relative stereo)	> 30 mg/kg
CC[C@H]1CCC[C@@](C)(N)C1 (relative stereo)	> 30 mg/kg

Attention now shifts to the item below.
Measured Min Lethality, C[C@H]1CCC[C@@](C)(N)C1 (relative stereo) : > 30 mg/kg

The values you see were collected from patent US6071966A.
